This collection of values is drawn from patent US9556165B2.

System: strain 19
assayName: MIC determination, broth microdilution (CLSI)
Format: cell-based
quantityKind: MIC
Mention the unit after the number when you answer.

Record C[C@H]1[C@H](NC(=O)/C(=N\OCCOc2ccc(C(=N)N)nn2)c2csc(N)n2)C(=O)N1S(=O)(=O)O [Example 28] . Reported MIC: 0.25 µg/mL

GET /value?item= C[C@H]1[C@H](NC(=O)/C(=N\OCCOc2ccc(C(=N)N)cc2)c2csc(N)n2)C(=O)N1S(=O)(=O)O [Example 9] &field=MIC returns 0.125 µg/mL

Looking up C[C@H]1[C@H](NC(=O)/C(=N\OCC(C)(C)Oc2ccc(C(=N)N)cc2)c2csc(N)n2)C(=O)N1S(=O)(=O)O [Example 17] , I see its MIC listed as 1 µg/mL

I'm hoping you can list MIC for every molecule here, please.
1. C[C@H]1[C@H](NC(=O)/C(=N\OCCOc2ccc(C(=N)N)cc2F)c2csc(N)n2)C(=O)N1S(=O)(=O)O [Example 19]
2. CC1(C)[C@H](NC(=O)/C(=N\OCCOc2ccc(C(=N)N)nn2)c2csc(N)n2)C(=O)N1OS(=O)(=O)O [Example 29]
3. C[C@H]1[C@H](NC(=O)/C(=N\OCCOc2ccc(C(=N)N)cc2Cl)c2csc(N)n2)C(=O)N1S(=O)(=O)O [Example 20]
4. C[C@H]1[C@H](NC(=O)/C(=N\OC(C)(C)COc2ccc(C(=N)N)cc2)c2csc(N)n2)C(=O)N1S(=O)(=O)O [Example 18]
5. C[C@@H]1[C@H](NC(=O)/C(=N\OCCOc2ccc(C(=N)N)cc2)c2csc(N)n2)C(=O)N1OS(=O)(=O)O [Example 10]
6. CC1(C)[C@H](NC(=O)/C(=N\OCCOc2ccc(C(=N)N[C@H]3CCNC3)cc2)c2csc(N)n2)C(=O)N1OS(=O)(=O)O [Example 39]
7. C[C@H]1[C@H](NC(=O)/C(=N\OCCCOc2ccc(C(=N)N)cc2)c2csc(N)n2)C(=O)N1S(=O)(=O)O [Example 37]
8. CC1(C)[C@H](NC(=O)/C(=N\OCCSc2ccc(C(=N)N)cc2)c2csc(N)n2)C(=O)N1OS(=O)(=O)O [Example 7]

Return:
0.5 µg/mL
0.5 µg/mL
2 µg/mL
2 µg/mL
0.5 µg/mL
0.125 µg/mL
2 µg/mL
0.5 µg/mL

---

Test system: E. coli ATCC25922
assayName: MIC determination, broth microdilution (CLSI)
Assay type: cell-based
conditionParameters: Escherichia coli, ATCC25922, strain 1
quantityKind: MIC (µg/mL)
Answers are plain numbers, in µg/mL.

Worked examples follow.
Input `C[C@H]1[C@H](NC(=O)/C(=N\OCCOc2ccc(C(=N)N)cc2Br)c2csc(N)n2)C(=O)N1S(=O)(=O)O` . Output MIC: 1

Recorded MIC (compound `C[C@H]1[C@H](NC(=O)/C(=N\OCc2ccc(C(=N)N)cc2)c2csc(N)n2)C(=O)N1S(=O)(=O)O` ): 0.5

For this compound ( `Cc1cc(OCCO/N=C(\C(=O)N[C@@H]2C(=O)N(OS(=O)(=O)O)C2(C)C)c2csc(N)n2)ccc1C(=N)N` ), measured MIC is 0.5

Per the records, this compound ( `CC1(C)[C@H](NC(=O)/C(=N\OCCOc2ccc(C(=N)NCC(=O)O)cc2)c2csc(N)n2)C(=O)N1OS(=O)(=O)O` ) has MIC equal to 0.5

For `CC1(C)[C@H](NC(=O)/C(=N\OCc2ccc(C(=N)N)cc2)c2csc(N)n2)C(=O)N1OS(=O)(=O)O` the compound record lists MIC as 1

State the recorded MIC for every item in the following list.
1. C[C@H]1[C@H](NC(=O)/C(=N\OCCOc2ccc(C(=N)N)cc2)c2csc(N)n2)C(=O)N1OS(=O)(=O)O
2. C[C@H]1[C@H](NC(=O)/C(=N\OCCOc2ccc(C(=N)N)cc2)c2nsc(N)n2)C(=O)N1S(=O)(=O)O
3. CC1(C)[C@H](NC(=O)/C(=N\O[C@H](COc2ccc(C(=N)NCCNc3ncccn3)cc2)C(=O)O)c2csc(N)n2)C(=O)N1OS(=O)(=O)O
4. C[C@H]1[C@H](NC(=O)/C(=N\OCCOc2ccc(C(=N)N)nn2)c2csc(N)n2)C(=O)N1S(=O)(=O)O
5. CC1(C)[C@H](NC(=O)/C(=N\OCCOc2ccc(C(=N)NCC[N+]3(C)CCCC3)cc2)c2csc(N)n2)C(=O)N1OS(=O)(=O)O.O=C([O-])C(F)(F)F
6. C[C@@H]1[C@H](NC(=O)/C(=N\OCCOc2ccc(C(=N)N)cc2)c2csc(N)n2)C(=O)N1S(=O)(=O)O
7. C[C@H]1[C@H](NC(=O)/C(=N\OCCCOc2ccc(NC(=N)N)cc2)c2csc(N)n2)C(=O)N1S(=O)(=O)O

Return:
1. 0.25
2. 1
3. 8
4. 0.125
5. 0.5
6. 0.125
7. 2

Consider `CC1(C)[C@H](NC(=O)/C(=N\OCCOc2ccc(C(=N)N)nn2)c2csc(N)n2)C(=O)N1OS(=O)(=O)O` . Its measured MIC is 0.25

---

Test system: S. aureus 133
assayName: MIC determination, broth microdilution (CLSI)
Format: cell-based
conditionParameters: Staphylococcus aureus, 133, strain 11; read-out: strain 11 MIC
quantityKind: MIC

The recorded MIC for entry `CC1(C)[C@H](NC(=O)/C(=N\OCCOc2ccc(C(=N)NCCNC=N)cc2)c2csc(N)n2)C(=O)N1OS(=O)(=O)O` equals ≤ 0.063 µg/mL

Answer for every listed entry: what is its MIC? The entries follow.
1. CC1(C)[C@H](NC(=O)/C(=N\OCCOc2ccnc(C(=N)N)c2)c2csc(N)n2)C(=O)N1OS(=O)(=O)O
2. C[C@H]1[C@H](NC(=O)/C(=N\OCCOc2ccc(C(=N)N)c(O)c2)c2csc(N)n2)C(=O)N1S(=O)(=O)O
3. C[C@H]1[C@H](NC(=O)/C(=N\OCCOc2ccc(C(=N)N)cc2CO)c2csc(N)n2)C(=O)N1S(=O)(=O)O
4. CC1(C)[C@H](NC(=O)/C(=N\O[C@@H](COc2ccc(C(=N)NCc3ncc[nH]3)cc2)C(=O)O)c2csc(N)n2)C(=O)N1OS(=O)(=O)O
5. CC1(C)[C@H](NC(=O)/C(=N\O[C@@H](COc2ccc(C(=N)N[C@@H]3CCNC3)cc2)C(=O)O)c2csc(N)n2)C(=O)N1OS(=O)(=O)O
6. CC1(C)[C@H](NC(=O)/C(=N\OCCCOc2ccc(C(=N)N)cc2)c2csc(N)n2)C(=O)N1OS(=O)(=O)O
7. C[C@H]1[C@H](NC(=O)/C(=N\OCCCOc2ccc(C(=N)N)cc2)c2csc(N)n2)C(=O)N1S(=O)(=O)O
8. C[C@H]1[C@H](NC(=O)/C(=N\OCCOc2ccc(C(=N)N)cc2)c2csc(N)n2)C(=O)N1S(=O)(=O)O

Return:
1: ≤ 0.063 µg/mL; 2: 0.25 µg/mL; 3: 0.25 µg/mL; 4: ≤ 0.063 µg/mL; 5: ≤ 0.063 µg/mL; 6: ≤ 0.063 µg/mL; 7: 1 µg/mL; 8: ≤ 0.063 µg/mL

Please give MIC for each item listed below.
1. CC1(C)[C@H](NC(=O)/C(=N\OCCOc2ccc(C(=N)NCCN)nc2)c2csc(N)n2)C(=O)N1OS(=O)(=O)O
2. C[C@H]1[C@H](NC(=O)/C(=N\OCCOc2ccc(C(=N)N)cc2Br)c2csc(N)n2)C(=O)N1S(=O)(=O)O
3. CC1(C)[C@H](NC(=O)/C(=N\O[C@H](COc2ccc(C(=N)NC(CN)CN)cc2)C(=O)O)c2csc(N)n2)C(=O)N1OS(=O)(=O)O
4. C[C@H]1[C@H](NC(=O)/C(=N\OCCOc2ccc(C(=N)N)cc2)c2nsc(N)n2)C(=O)N1S(=O)(=O)O
5. CC1(C)[C@H](NC(=O)/C(=N\OC(COc2ccc(C(=N)N)nc2)C(=O)O)c2csc(N)n2)C(=O)N1OS(=O)(=O)O (mixture of isomers) [Example 36A]
6. CC1(C)[C@H](NC(=O)/C(=N\O[C@@H](COc2ccc(C(=N)NC3CC3N)cc2)C(=O)O)c2csc(N)n2)C(=O)N1OS(=O)(=O)O (single isomer, unassigned) [Example 100A]
7. CC1(C)[C@H](NC(=O)/C(=N\OCCOc2ccc(C(=N)NCCCN)cc2)c2csc(N)n2)C(=O)N1OS(=O)(=O)O
8. C[C@H]1[C@H](NC(=O)/C(=N\OCCNc2ccc(C(=N)N)cc2)c2csc(N)n2)C(=O)N1S(=O)(=O)O

Return:
["≤ 0.063 µg/mL", "0.125 µg/mL", "≤ 0.063 µg/mL", "2 µg/mL", "≤ 0.063 µg/mL", "≤ 0.063 µg/mL", "≤ 0.063 µg/mL", "0.25 µg/mL"]

# return MIC for each item in the list
1. C[C@H]1[C@H](NC(=O)/C(=N\OCCOc2ccc(CC(=N)N)cc2)c2csc(N)n2)C(=O)N1S(=O)(=O)O
2. C[C@H]1[C@H](NC(=O)/C(=N\OCCOc2ccc(C(=N)N)cc2)c2csc(N)n2)C(=O)N1OS(=O)(=O)O
3. CC1(C)[C@H](NC(=O)/C(=N\OCCSc2ccc(C(=N)N)cc2)c2csc(N)n2)C(=O)N1OS(=O)(=O)O
4. C[C@@H]1[C@H](NC(=O)/C(=N\OCCOc2ccc(C(=N)N)cc2)c2csc(N)n2)C(=O)N1S(=O)(=O)O
5. C[C@H]1[C@H](NC(=O)/C(=N\OCCCOc2ccc(NC(=N)N)cc2)c2csc(N)n2)C(=O)N1S(=O)(=O)O
6. CC1(C)[C@H](NC(=O)/C(=N\OCCOc2ccc(C(=N)NC3CCNCC3)cc2)c2csc(N)n2)C(=O)N1OS(=O)(=O)O
7. CC1(C)[C@H](NC(=O)/C(=N\OCCOc2ccc(C3=NCCN3)cc2)c2csc(N)n2)C(=O)N1OS(=O)(=O)O

Return:
1. 0.125 µg/mL
2. ≤ 0.063 µg/mL
3. ≤ 0.063 µg/mL
4. 0.125 µg/mL
5. 0.5 µg/mL
6. ≤ 0.063 µg/mL
7. ≤ 0.063 µg/mL

// for each compound below, give its MIC
1. CC1(C)[C@H](NC(=O)/C(=N\OCCOc2ccc(C(=N)NCc3ccccn3)cc2)c2csc(N)n2)C(=O)N1OS(=O)(=O)O
2. C[C@H]1[C@H](NC(=O)/C(=N\OCCOc2nc(C(=N)N)cs2)c2csc(N)n2)C(=O)N1S(=O)(=O)O

Return:
1. ≤ 0.063 µg/mL
2. ≤ 0.063 µg/mL
